assayed.target: SARS-CoV-2 M^pro (Severe acute respiratory syndrome coronavirus 2)
experiment.summary: SARS-CoV-2 Mpro fluorogenic
Type: biochemical
experimental.parameters: 0.25 h, read-out: SARS-CoV-2 M^pro % (50 μM)
measured.endpoint: inhibition at 50 µM (%)
Only the number, expressed in %, is required.

Sample records with inhibition at 50 µM:
| compound | assayed.target | number |
| --- | --- | --- |
| N#Cc1ccc(COc2cccc(C(=O)Nc3ccc4c(c3)B(O)OC4)c2)cc1 | SARS-CoV-2 M^pro (Severe acute respiratory syndrome coronavirus 2) | 31.7 |
| O=C(Nc1ccc2c(c1)B(O)OC2)c1cccc(OCc2ccccc2)n1 | SARS-CoV-2 M^pro (Severe acute respiratory syndrome coronavirus 2) | 55.5 |

Exercise: Returns the measured inhibition at 50 µM for the input compound. Input: `Cc1cccc(COc2cccc(C(=O)Nc3ccc4c(c3)B(O)OC4)c2)c1`
Key: 45.7

Exercise: Returns the measured inhibition at 50 µM for the input compound. Input: `COc1cccc(COc2cccc(C(=O)Nc3ccc4c(c3)B(O)OC4)c2)c1`
Key: 43.4

###

assayed.target: DENV serotype 2 protease (Dengue virus type 2, UniProt P29990)
Sequence (P29990 1346-1475): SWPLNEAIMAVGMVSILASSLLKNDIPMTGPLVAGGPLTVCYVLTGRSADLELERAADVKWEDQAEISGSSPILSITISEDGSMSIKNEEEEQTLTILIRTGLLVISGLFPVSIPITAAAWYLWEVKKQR
Sequence (P29990 1476-2093): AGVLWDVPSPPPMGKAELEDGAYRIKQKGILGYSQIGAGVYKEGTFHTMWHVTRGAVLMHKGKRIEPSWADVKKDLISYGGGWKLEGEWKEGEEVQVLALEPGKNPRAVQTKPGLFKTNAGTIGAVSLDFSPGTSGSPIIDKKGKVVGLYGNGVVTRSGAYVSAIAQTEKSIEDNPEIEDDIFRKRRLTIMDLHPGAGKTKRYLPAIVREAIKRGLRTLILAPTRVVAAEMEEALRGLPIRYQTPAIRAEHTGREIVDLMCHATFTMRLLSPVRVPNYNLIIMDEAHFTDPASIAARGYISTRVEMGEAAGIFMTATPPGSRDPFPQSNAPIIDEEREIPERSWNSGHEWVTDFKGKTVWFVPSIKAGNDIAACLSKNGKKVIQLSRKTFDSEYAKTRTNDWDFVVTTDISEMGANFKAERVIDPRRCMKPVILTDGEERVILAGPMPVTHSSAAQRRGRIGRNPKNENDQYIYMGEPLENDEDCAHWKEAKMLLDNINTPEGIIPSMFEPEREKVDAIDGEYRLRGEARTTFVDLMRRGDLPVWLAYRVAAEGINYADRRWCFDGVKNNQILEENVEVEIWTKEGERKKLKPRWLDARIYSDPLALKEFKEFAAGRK
experiment.summary: DENV2 reporter gene assay
Assay type: cell-based
experimental.parameters: read-out: DENV2proHeLa EC50; reporter gene assay in HeLa cells
measured.endpoint: pEC50
Here pEC50 is given on a logarithmic scale as minus log10 of the concentration in mol/L.

Sample records with pEC50:
| molecule | assayed.target | pEC50 |
| --- | --- | --- |
| CCCCCC(=O)NC(C(=O)NCc1ccc(NC(=N)N)cc1)c1ccc(OCc2ccccc2)cc1 (stereo not drawn) [NK-189, reference compound] | DENV serotype 2 protease (Dengue virus type 2, UniProt P29990) | 6.22 |
| O=C(Nc1ccc2c(c1)B(O)OC2)c1cccc(OCc2ccccc2)n1 | DENV serotype 2 protease (Dengue virus type 2, UniProt P29990) | 5.60 |

We now examine a further molecule.
Exercise: Returns the measured pEC50 for the input molecule. Input: `O=C(Nc1ccc2c(c1)B(O)OC2)c1cccc(OCc2c(Cl)cccc2Cl)c1`
Key: 6.27

###

assayed.target: DENV serotype 2 protease (Dengue virus type 2)
experiment.summary: DENV2 reporter gene assay
Format: cell-based
measured.endpoint: EC50 (µM)
Only the number, expressed in µM, is required.

Sample records with EC50:
| compound | number |
| --- | --- |
| O=C(Nc1ccc2c(c1)B(O)OC2)c1cccc(OCC2CCCCC2)c1 | 3.4 |
| N#Cc1ccc(COc2cccc(C(=O)Nc3ccc4c(c3)B(O)OC4)c2)cc1 | 4.1 |
| Cc1cccc(COc2cccc(C(=O)Nc3ccc4c(c3)B(O)OC4)c2)c1 | 1.1 |
| O=C(Nc1ccc2c(c1)B(O)OC2)c1cccc(OCc2ccc(Cl)cc2)c1 | 2.4 |

We now examine a further molecule.
Exercise: Value wanted: EC50 (DENV serotype 2 protease (Dengue virus type 2)) of entry `COc1cccc(COc2cccc(C(=O)Nc3ccc4c(c3)B(O)OC4)c2)c1`
Key: 2.9
